For each record, write down the corresponding CC50.
system: IGROV1; test: NCI DTP 60 cell line screen, SRB; details: Homo sapiens, IGROV-1, 48 h, read-out: LC50
Give bare numbers, in µM.

Please go through the list and note CC50 for each compound.
1. O=C1/C(=C/C(Cl)=C/c2ccc([N+](=O)[O-])cc2)SC(=S)N1/N=C\C(Cl)=C\c1ccc([N+](=O)[O-])cc1 [Compound 2c]
2. O=C(O)CCN1C(=O)/C(=C/C(Cl)=C/c2ccc([N+](=O)[O-])cc2)SC1=S [Compound 2h]

stdout:
[58.9, 43.1]

* * *

tested on: CAKI-1; assay: NCI DTP 60 cell line screen, SRB; conditions: Homo sapiens, CAKI-1, 48 h, read-out: LC50
quantityMeasured: CC50 (µM)
Numbers only, in µM.

>  <compound>
O=C(O)CCN1C(=O)/C(=C/C(Cl)=C/c2ccc([N+](=O)[O-])cc2)SC1=S

>  <CC50, µM>
47.1

$$$$

We next turn to a different compound, shown below.
stdin: Give the measured CC50 of O=C(O)C(Cc1ccccc1)N1C(=O)/C(=C/C(Cl)=C/c2ccc([N+](=O)[O-])cc2)SC1=S (centres unmarked) .
stdout: 16.7

* * *

test system: MDA-MB-435; assay: NCI DTP 60 cell line screen, SRB; details: Homo sapiens, MDA-MB-435, 48 h, read-out: LC50
Would you mind telling me the reported CC50 of each entry?
Give bare numbers, in µM.

>  <smiles>
O=C1/C(=C/C(Cl)=C/c2ccc([N+](=O)[O-])cc2)SC(=S)N1/N=C\C(Cl)=C\c1ccc([N+](=O)[O-])cc1

>  <CC50 [µM]>
86.3

$$$$

Moving on to another compound below.
stdin: # lookup: CC50 of `O=C(O)CCN1C(=O)/C(=C/C(Cl)=C/c2ccc([N+](=O)[O-])cc2)SC1=S`
stdout: 29.3

* * *

Test system: DLD-1 (human colon cancer)
Experiment: MTT cell viability assay
Assay type: cell-based
Settings: DLD-1, MTT, 24 h
Protocol: In the second stage of the research, Ciminalum-thiazolidinone hybrids were investigated for antitumor activity on the lines of gastric cancer (AGS), human colon cancer (DLD-1), and breast cancers (MCF-7 and MDA-MB-231). The study was performed in the MTT assay according to the method described previously. The studied cancer line was sensitive to the action of the studied compounds that inhibited its growth in micromolar ranges of GI50. […]
quantityMeasured: GI50 (µM)
Numbers only, in µM.

The following molecules have reported results that may help.
>  <molecule>
O=C(NN1C(=O)/C(=C/C(Cl)=C/c2ccc([N+](=O)[O-])cc2)SC1=S)c1csc2c1CCCC2 [Compound 2d]

>  <GI50 (µM)>
5.47

$$$$
>  <molecule>
O=C1NC(=O)/C(=C/C(Cl)=C/c2ccc([N+](=O)[O-])cc2)S1 [Compound 2a]

>  <GI50 (µM)>
14

$$$$

stdin: GET /values?readout=GI50&system=DLD-1 (human colon cancer)&item= O=C(O)CCN1C(=O)/C(=C/C(Cl)=C/c2ccc([N+](=O)[O-])cc2)SC1=S [Compound 2h]
stdout: 3.67

* * *

Record form. Attribute: CC50. Fill in for each entry.
tested on: Leukemia subpanel; assay: cells; settings: Homo sapiens, read-out: MG_MID, LC50

Recorded results for 3 compounds are shown here.
>  <compound>
O=C(O)C(Cc1ccccc1)N1C(=O)/C(=C/C(Cl)=C/c2ccc([N+](=O)[O-])cc2)SC1=S (centres unmarked) [Compound 2j]

>  <CC50>
> 100 µM

$$$$
>  <compound>
O=C1/C(=C/C(Cl)=C/c2ccc([N+](=O)[O-])cc2)SC(=S)N1c1ccc(O)cc1 [Compound 2f]

>  <CC50>
> 100 µM

$$$$
>  <compound>
O=C1NC(=S)S/C1=C\C(Cl)=C\c1ccc([N+](=O)[O-])cc1 [Compound 2b]

>  <CC50>
> 50 µM

$$$$

Field: CC50. Fill in for each record below.
1. O=C1/C(=C/C(Cl)=C/c2ccc([N+](=O)[O-])cc2)SC(=S)N1/N=C\C(Cl)=C\c1ccc([N+](=O)[O-])cc1 [Compound 2c]
2. O=C(O)CCN1C(=O)/C(=C/C(Cl)=C/c2ccc([N+](=O)[O-])cc2)SC1=S [Compound 2h]

stdout:
90 µM
> 100 µM

All figures here come from paper PMC8161026.
